Target: ALK1 (Homo sapiens)
Sequence (P37023 22-503): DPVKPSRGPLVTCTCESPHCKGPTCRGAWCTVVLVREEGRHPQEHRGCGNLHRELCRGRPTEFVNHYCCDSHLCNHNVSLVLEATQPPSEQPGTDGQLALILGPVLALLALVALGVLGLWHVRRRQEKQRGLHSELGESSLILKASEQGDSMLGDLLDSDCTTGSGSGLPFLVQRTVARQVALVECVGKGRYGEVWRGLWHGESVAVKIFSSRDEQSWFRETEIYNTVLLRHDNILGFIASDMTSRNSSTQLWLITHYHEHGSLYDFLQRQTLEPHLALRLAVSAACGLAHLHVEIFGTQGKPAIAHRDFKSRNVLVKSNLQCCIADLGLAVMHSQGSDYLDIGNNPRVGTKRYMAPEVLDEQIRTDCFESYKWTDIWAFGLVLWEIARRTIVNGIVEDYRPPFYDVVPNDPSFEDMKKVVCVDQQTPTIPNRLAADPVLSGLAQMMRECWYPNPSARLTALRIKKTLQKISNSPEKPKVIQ
Assay: TR-FRET enzymatic ALK kinase assay, ALK1
IC50 under 300 nM gets YES, anything at or over 300 nM gets NO.

Some entries whose results are on file:
Compound: CC(O)c1cccc(-c2cnn3cc(-c4ccc(OC5(CN6CCNCC6)CC5)cc4)cnc23)c1 (centres unmarked) [Compound 168]
Group: NO
--
Compound: NC1(c2ccc(-c3cnc4c(-c5ccc(S(N)(=O)=O)c6ccccc56)cnn4c3)cc2)CNC1 [Compound 209]
Group: NO
--
Compound: C[S+](=O)([O-])c1cccc(-c2cnn3cc(-c4ccc(OC5(CN6C7CCC6CC7)CC5)cc4)cnc23)c1 [Compound 183]
Group: YES
--
Compound: C[C@@H]1CNC[C@H](C)N1c1ccc(-c2cnc3c(-c4cc(C(F)(F)F)cc(S(C)(=O)=O)c4)cnn3c2)cc1 [Compound 193]
Group: NO
--
Compound: CC(O)c1cccc(-c2cnn3cc(-c4ccc(C5(C)CCNCC5)cc4)cnc23)c1 (centres unmarked) [Compound 136]
Group: YES
--
Compound: N=C(N)c1ccc(-c2cnn3cc(-c4ccc(N5CCNCC5)cc4)cnc23)cc1 [Compound 14]
Group: NO
--
Compound: NC(c1ccc(-c2cnn3cc(-c4ccc(OCCN5CCCCC5)cc4)cnc23)cc1)C(F)(F)F (centres unmarked) [Compound 144]
Group: NO

Problem: Answer whether the compound CN1CCC(c2ccc(-c3cnc4c(-c5cccc(S(C)(=O)=O)c5)cnn4c3)cc2)CC1 [Compound 91] has IC50 strictly less than 300 nM
Solution: YES
